Experiment: Human HepG2 cell viability assay in 384 well format
Assay type: toxicity, cell-based
Design: dose 125 nL, time 70.5 hour; concentration not given beside the values
Conditions: HepG2 cells, read-out: Inhibition
measure: cytotoxicity at 70.5 h (%)
All answers are understood in %, so give the number only.

Example entries and their recorded answers appear below.
compound	cytotoxicity at 70.5 h, %
COc1cc(C(=O)NS(=O)(=O)c2cccc(C#N)c2)cc(OC)c1Br	-6.73
COc1ccccc1CN1CC[C@]2(C[C@H](OC)CO2)C1	-12.6

Data request, read-out cytotoxicity at 70.5 h, for CC(C)c1noc(CN(Cc2cccnc2)C2CN3CCC2CC3)n1 (stereo unspecified)
52.5

Likewise for "CC1(c2nccs2)CCN(C(=O)CC2CCOCC2)CC1" ?
-9.57

Likewise for "CCC(=O)NCc1cc(Br)ccc1OC(F)F" ?
-6

Likewise for "Cc1cccnc1[C@H](C)NC(=O)Cc1cc2c(cc1Cl)OCCO2" ?
32.1

====

Each entry below carries its recorded cytotoxicity at 70.5 h.
Test: Human HepG2 cell viability assay in 384 well format
Assay type: toxicity, cell-based
Parameters: dose 125 nL, time 70.5 hour; concentration not given beside the values
Settings: HepG2 cells, read-out: Inhibition
All answers are understood in %, so give the number only.

compound	cytotoxicity at 70.5 h, %
CC(C)N(CC(=O)Nc1ccc(Br)cc1Cl)Cc1cccnc1	38.4
COCCCNc1nc(CNC(C)=O)cc(-c2ccco2)n1	-8.32
CC(=O)N1CCN(C(=O)CCn2c(C)nc3ccccc3c2=O)CC1	-7.85

Data request, read-out cytotoxicity at 70.5 h, for "O=C(C1CCOCC1)N1CCN2C(=O)N(Cc3ccc(F)cc3)C[C@H]2C1"
-3.96

Likewise for "O=C(NCC(=O)N1CCCCC1)c1ccoc1" ?
-7.84

====

Assay: Human HepG2 cell viability assay in 384 well format
Format: toxicity, cell-based
Parameters: dose 125 nL, time 70.5 hour; concentration not given beside the values
Conditions: HepG2 cells, read-out: Inhibition
measure: cytotoxicity at 70.5 h (%)
All answers are understood in %, so give the number only.

Example entries and their recorded answers appear below.
compound	reading
Cc1ccc(F)c(NCC(C)(C)S(C)(=O)=O)c1	-2.22
Cn1cc(C(=O)Nc2cccc(-c3ccc4c(c3)CCO4)n2)ccc1=O	12
CC(O)CN1CCN(C(=O)c2cc3ccccc3[nH]c2=O)CC1 (stereo not drawn)	-11
N[C@@H](Cc1c[nH]cn1)C(=O)N1CCC(Oc2ccc(Cl)cc2)CC1	28.2
Cc1ccc(N2CC3(COCCN(Cc4ccccn4)C3)OCC2=O)s1 (stereo not drawn)	-1.36

Data request, read-out cytotoxicity at 70.5 h, for COc1cc(C(=O)N(C2CC2)C2CC(=O)NC2=O)ccc1C (stereo not drawn)
-0.747

Likewise for "CC(C)Nc1ncnc2c1CCN(C(=O)c1ccc[nH]1)CC2" ?
-9.63

Likewise for "COc1cc(C(=O)N2CCC(Nc3cccnc3)CC2)ccc1C" ?
6.09

====

Assay: Human HepG2 cell viability assay in 384 well format
Type: toxicity, cell-based
Design: dose 125 nL, time 70.5 hour; concentration not given beside the values
Settings: HepG2 cells, read-out: Inhibition
measure: cytotoxicity at 70.5 h (%)
All answers are understood in %, so give the number only.

compound	output.unit	cytotoxicity at 70.5 h
CCOCC(=O)N1CCCn2c(CN3CCOCC3)nnc2C1	%	2.86
COCc1nc(Cn2ncn3cccc3c2=O)no1	%	-0.912
Cc1cc(C)n(CCN2CCN(C(=O)c3ccccc3Br)CC2)n1	%	-2.29
Cc1ncoc1C(=O)N1CCOC(CC2CCCCC2)C1 (stereo not drawn)	%	-5.24
CC(C(=O)N1CCCC1)n1nc(-c2cccs2)cc(N)c1=O (stereo not drawn)	%	5.25
Cc1cn2c(n1)CCC(NC(=O)Cn1cncn1)C2 (stereo not drawn)	%	-5.67

Data request, read-out cytotoxicity at 70.5 h, for "Cc1cc(SCC(N)=O)nc(-c2cccc(F)c2)n1"
-11.7

Likewise for "CCC(CC)CN1CCN(CC(=O)Nc2cccc3nsnc23)CC1" ?
-15.1

Likewise for CN(Cc1ccc2c(c1)OCO2)C(=O)c1ccc(C2CCCNC2)cc1 (stereo not drawn) ?
-6.12

Likewise for "CN(C)C(=O)Cn1cc(C(=O)NCCc2ccc(C(F)(F)F)cc2)nn1" ?
30.1

Likewise for "O=c1[nH]c2c(-c3ccccn3)nsc2c(=O)n1C1CCCCC1" ?
-5.9

Likewise for CC1CCC(O)(CSc2nnnn2C)CC1 (stereo not drawn) ?
-3.28

Likewise for "O=C(Nc1cncc(Br)c1O)c1ccon1" ?
-2.33

Likewise for "CNS(=O)(=O)c1csc(C(=O)NCc2sccc2C)c1" ?
-4.77

Likewise for Cc1ccccc1OCCCC(=O)N1CCCC(n2cncn2)C1 (stereo not drawn) ?
13

Likewise for CCOc1cc(CNCC2CN(C3CC3)CCO2)ccc1OC (stereo not drawn) ?
-8.19

Likewise for CSCCC(NC(N)=O)C(=O)NCc1cnn(-c2ccccc2)c1 (stereo not drawn) ?
8.76

Likewise for "Cc1ccc(NC2(C(=O)NCCCN)CCCC2)cc1" ?
-8.06

====

Each entry below carries its recorded cytotoxicity at 70.5 h.
Test: Human HepG2 cell viability assay in 384 well format
Assay type: toxicity, cell-based
Design: dose 125 nL, time 70.5 hour; concentration not given beside the values
Conditions: HepG2 cells, read-out: Inhibition
All answers are understood in %, so give the number only.

Example entries and their recorded answers appear below.
compound	output.unit	cytotoxicity at 70.5 h
CN1CCCN(C(=O)c2nc3sccn3c2-c2ncc[nH]2)CC1	%	-13
COCCN(Cc1cccc(C#N)c1)Cc1nc(C)no1	%	28.5
FC1(F)CCN(Cc2ccncc2)CC12CCN(c1cccnc1)C2 (stereo unspecified)	%	2.6
COCCO[C@@H]1CCN(C(=O)c2ccc(C)o2)[C@@H]1Cc1cccnc1	%	4.05
Cc1c(CC(=O)N2CCN(CC(F)(F)F)CC2)nnn1-c1ccccc1	%	-11.3

Here is another compound to look at.
Data request, read-out cytotoxicity at 70.5 h, for "CC(C)c1nc(N2CCC(N3CCCCCC3)CC2)c2cnn(C)c2n1"
13

====

Each entry below carries its recorded cytotoxicity at 70.5 h.
Test: Human HepG2 cell viability assay in 384 well format
Assay type: toxicity, cell-based
Parameters: dose 125 nL, time 70.5 hour; concentration not given beside the values
Settings: HepG2 cells, read-out: Inhibition
All answers are understood in %, so give the number only.

Example entries and their recorded answers appear below.
compound	cytotoxicity at 70.5 h [%]
CCOCc1cnc2n1CCN(Cc1cccs1)C2C (stereo unspecified)	-8.03
c1cnnc(N2CCCC2CNCc2nc(-c3ccsc3)no2)c1 (stereo unspecified)	-20.3
Cc1ccc(C(=O)N2CCOC3(CCCC3)C2)c(=O)[nH]1	-41.7
O[C@@H]1CN(c2nc3ccccc3o2)CC[C@H]1c1ccc2c(c1)OCO2	14.9
CCc1cnc(N)nc1NCCn1cc(Cl)cn1	-6.52

Here is another compound to look at.
Data request, read-out cytotoxicity at 70.5 h, for "CN(CC(=O)Nc1ccc(Br)cn1)C(=O)C(C)(C)C"
-6.91

====

Each entry below carries its recorded cytotoxicity at 70.5 h.
Experiment: Human HepG2 cell viability assay in 384 well format
Type: toxicity, cell-based
Design: dose 125 nL, time 70.5 hour; concentration not given beside the values
Conditions: HepG2 cells, read-out: Inhibition
All answers are understood in %, so give the number only.

compound	reading
CNc1cccc(C2CCCN(C(C)=O)C2)n1 (stereo not drawn)	-19.3
CCCN1CCC(CC(=O)NCc2cc(O)ncn2)CC1	-11.6
Cc1nc(Nc2ncccn2)cc(C2CN(C(=O)c3cccnc3)C2)n1	-8.6
CCOc1ccc(Cl)c(C(=O)N2CCCC(c3ccn[nH]3)C2)n1 (stereo not drawn)	-2.59
COc1ccc(CC2CN(C(=O)c3coc(C)n3)CCO2)cc1 (stereo not drawn)	-9.96
CCOC(=O)C1(Cc2cccc(OC)c2)CCCN(Cc2ncc[nH]2)C1 (stereo not drawn)	22
Cc1nnsc1CN(C)Cc1ccc(C(=O)Nc2sccc2C#N)cc1	-3.25
O=C(NCC1CCOC1)c1csc(Cc2ccccc2)n1 (stereo not drawn)	19.4

Data request, read-out cytotoxicity at 70.5 h, for "O=C(N1CCCC1)N1CCO[C@H]2[C@@H](Oc3ccccn3)CC[C@@H]21"
-6.73

Likewise for "Cc1cccc2c1nc1n2[C@@H](CNC(=O)NC(C)C)COC1" ?
-0.416

Likewise for CC(C)=CCN(C)C1CCCN(Cc2noc(C)n2)C1 (stereo not drawn) ?
21.1

Likewise for "O=C(Nc1ccccc1OCCc1ccccn1)NC1CCOCC1" ?
18.2

Likewise for "Cc1ccc(N2CC[C@H](O)[C@@H]2Cc2cnn(C)c2)nn1" ?
-6.12

Likewise for "Cc1nnc(CN(Cc2ccccc2Cl)C2CCCC2)o1" ?
-5.33

Likewise for "NC(=O)N1CCC2(CC1)CN(c1ncccn1)CCO2" ?
-7.64

Likewise for "Cc1noc(C)c1CN1CCC[C@]2(C[C@@H](Oc3ccccn3)CO2)C1" ?
-0.591

Likewise for CCOC(=O)CSc1nnc([C@@H](N)C(C)CC)o1 (stereo partly drawn) ?
-9.94

Likewise for COc1ccc(C2CCN(C(=O)c3ncccc3OC(C)C)C2)cc1 (stereo not drawn) ?
11.5

Likewise for "c1cc(-c2noc(-c3cc(C4CC4)[nH]n3)n2)cc(N2CCCCC2)n1" ?
-0.746

Likewise for "Cn1cc(CN2CC[C@H](O)[C@@H]2Cc2ccncc2)cn1" ?
26
